# Test system: human adenocarcinoma cell line CaCo-2
# assay-summary: Cell Based Screen for Inhibitors of Raf Kinase, CaCo-2
# condition-parameters: Homo sapiens, Caco-2, 96 h, four days incubation, SRB
value-kind: IC50

| compound | result |
| --- | --- |
| Cn1ccnc1Sc1ccc(Nc2c(C#N)cnc3cc(-c4ccc(CN5CCCCC5)cc4)ccc23)cc1Cl [Example 136] | > 1000 nM |
| Cn1ccnc1Sc1ccc(Nc2c(C#N)cnc3cc(-c4ccc(CN5CCNCC5)cc4)ccc23)cc1Cl [Example 97] | > 1000 nM |
| Cn1ccnc1Sc1ccc(Nc2c(C#N)cnc3cc(-c4cnc(N5CCOCC5)nc4)ccc23)cc1Cl [Example 191] | > 10000 nM |

====

# IC50 measurements, system: Src (Homo sapiens, UniProt P12931)
# Sequence (P12931 whole entry, species assumed): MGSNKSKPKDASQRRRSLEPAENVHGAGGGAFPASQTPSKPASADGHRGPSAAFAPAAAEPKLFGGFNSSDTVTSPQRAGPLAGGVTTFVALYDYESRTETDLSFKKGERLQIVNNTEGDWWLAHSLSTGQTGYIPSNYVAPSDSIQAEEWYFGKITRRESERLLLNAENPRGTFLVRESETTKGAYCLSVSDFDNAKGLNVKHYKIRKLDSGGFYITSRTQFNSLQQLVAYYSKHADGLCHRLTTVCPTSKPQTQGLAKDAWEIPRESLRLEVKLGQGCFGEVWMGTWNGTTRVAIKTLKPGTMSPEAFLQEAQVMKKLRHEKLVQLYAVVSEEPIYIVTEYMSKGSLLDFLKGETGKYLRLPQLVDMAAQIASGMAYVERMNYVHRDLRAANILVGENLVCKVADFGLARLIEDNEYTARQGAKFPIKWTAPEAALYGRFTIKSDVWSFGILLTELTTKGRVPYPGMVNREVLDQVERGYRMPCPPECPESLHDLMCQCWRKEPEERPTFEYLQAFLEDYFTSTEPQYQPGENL

| smiles-structure | IC50 / nM |
| --- | --- |
| COc1cc(Nc2c(C#N)cnc3cc(C#CCN4CCOCC4)ccc23)c(Cl)cc1Cl | 22 |
| COc1cc(Nc2c(C#N)cnc3cc(-c4cc5ccccc5s4)ccc23)c(Cl)cc1Cl | 170 |

====

Documented melting point across a set of compounds
value-kind: melting point

| smiles-structure | result |
| --- | --- |
| COc1cc(Nc2c(C#N)cnc3cc(-c4ccc(C=O)cc4)ccc23)c(Cl)cc1Cl | 248 to 251 °C |
| COc1ccc(-c2ccc3c(Nc4cc(OC)c(Cl)cc4Cl)c(C#N)cnc3c2)cc1 | 210 to 212 °C |
| COc1cc(Nc2c(C#N)cnc3cc(-c4ccc(CN5CCOCC5)nc4)ccc23)c(Cl)cc1Cl | 195 to 197 °C |
| COc1cc(Nc2c(C#N)cnc3cc(-c4csc(CN5CCOCC5)c4)ccc23)c(C)cc1Cl | > 108 °C (dec.) |
| Cn1ccnc1Sc1ccc(Nc2c(C#N)cnc3ccc(-c4ccc(N5CCOCC5)nc4)cc23)cc1Cl | 276 to 278 °C |
| CCN1CCN(c2ccc(-c3ccc4c(Nc5cc(OC)c(Cl)cc5Cl)c(C#N)cnc4c3)nc2)CC1 | 232 to 234 °C |
| Cn1ccnc1Sc1ccc(Nc2c(C#N)cnc3cc(-c4ncccc4CN4CCOCC4)ccc23)cc1Cl | 195 °C (dec.) |

====

Documented GI50 across a set of compounds
# target-or-system: Rat2 fibroblasts stably transformed with v-Src/Hu c-Src fusion gene (Homo sapiens, UniProt P12931, cells depend on it, form not given)
# Sequence (P12931 whole entry, change not shown, the tested form may be a part): as the sequence (P12931 whole entry, species assumed) above
# assay-summary: Anchorage Independent Src-transformed Fibroblast Proliferation Assay
# Assay type: cell-based, Rat
# condition-parameters: suspension growth, MTS reagent on Day 5; read-out: anch-indep src-tx fib IC50

| compound | GI50 |
| --- | --- |
| COc1cc(Nc2c(C#N)cnc3cc(-c4csc(CN5CCOCC5)c4)ccc23)c(Cl)cc1F [Example 79] | 130 nM |
| COc1cc(Nc2c(C#N)cnc3cc(-c4cc5ccccc5o4)ccc23)c(Cl)cc1Cl [Example 119] | > 10000 nM |
| COc1ccc(/C=C/c2ccc3c(Nc4cc(OC)c(Cl)cc4Cl)c(C#N)cnc3c2)cc1 [Example 54] | > 10000 nM |
| COc1cc(Nc2c(C#N)cnc3cc(-c4cc(CN5CCOCC5)c(CN5CCOCC5)s4)c(OC)cc23)c(Cl)cc1Cl [Example 82] | 50 nM |
| COc1cc(Nc2c(C#N)cnc3cc(-c4ccc(C5OCCO5)o4)ccc23)c(Cl)cc1Cl [Example 5] | 200 nM |
| COc1cc(Nc2c(C#N)cnc3cc(-c4cscc4CN4CCOCC4)ccc23)c(Cl)cc1Cl [Example 65] | > 10000 nM |
| COc1cc(Nc2c(C#N)cnc3cc(-c4ccc(-c5ccccc5)cc4)ccc23)c(Cl)cc1Cl [Example 165] | > 10000 nM |
| COc1cc(Nc2c(C#N)cnc3cc(-c4ccc(C(=O)O)cc4)ccc23)c(Cl)cc1Cl [Example 121] | > 10000 nM |

====

Documented melting point across a set of molecules
value-kind: melting point

| molecule | value-kind | result |
| --- | --- | --- |
| COc1cc(Nc2c(C#N)cnc3cc(-c4ccc(Oc5ccc(CN6CCOCC6)cc5)nc4)ccc23)c(Cl)cc1Cl | melting point | 176 to 178 °C |
| COc1cc(Nc2c(C#N)cnc3cc(-c4ccc(CN5CCOCC5)cn4)ccc23)c(Cl)cc1Cl | melting point | 220 to 222 °C |
| COc1cc(Nc2c(C#N)cnc3cc(-c4cnc(N5CCOCC5)nc4)ccc23)c(Cl)cc1Cl | melting point | > 260 °C |
| COc1cc(Nc2c(C#N)cnc3cc(-c4sccc4C=O)ccc23)c(Cl)cc1Cl | melting point | 231 to 232 °C |
| COc1cc(Nc2c(C#N)cnc3cc(-c4ccc(CN5CC[S+]([O-])CC5)cc4)ccc23)c(Cl)cc1Cl | melting point | 244 to 247 °C |
| COc1cc(Nc2c(C#N)cnc3cc(-c4cncn4CCN4CCOCC4)ccc23)c(Cl)cc1Cl | melting point | 150 °C (dec.) |
| COc1cc(Nc2c(C#N)cnc3cc(-c4ccc(CNCCS(C)(=O)=O)cc4)ccc23)c(Cl)cc1Cl | melting point | 245 to 246 °C |
| Cn1ccnc1Sc1ccc(Nc2c(C#N)cnc3cc(-c4ccc(CN5CCSCC5)cn4)ccc23)cc1Cl | melting point | 220 to 222 °C |
| COc1cc(Nc2c(C#N)cnc3cc(-c4ccc(CNCCS(C)(=O)=O)o4)ccc23)c(Cl)cc1Cl | melting point | 171 to 174 °C |
| CCN1CCN(Cc2cc(-c3ccc4c(Nc5ccc(Cl)cc5Cl)c(C#N)cnc4c3)cs2)CC1 | melting point | 182 to 184 °C |
| N#Cc1cnc2cc(C=CCCCCN3CCOCC3)ccc2c1Nc1ccc(Cl)cc1Cl (mixture of isomers) | melting point | 128 to 130 °C |
| COc1cc(Nc2c(C#N)cnc3cc(-c4cccc(N)c4)ccc23)c(Cl)cc1Cl | melting point | 221 to 222 °C |
| COc1ccc(C#Cc2ccc3c(Nc4cc(OC)c(Cl)cc4Cl)c(C#N)cnc3c2)cc1 | melting point | 225 to 226 °C |
| COc1cc(Nc2c(C#N)cnc3cc(-c4csc(CN5CCOCC5)c4)c(OC)cc23)c(Cl)cc1Cl | melting point | 148 to 150 °C |
| COc1ccc(Cl)c(Nc2c(C#N)cnc3cc(-c4ccc(CN5CCOCC5)cc4)ccc23)c1 | melting point | 160 to 163 °C |
| CN1CCN(Cc2cccnc2-c2ccc3c(Nc4ccc(Sc5nccn5C)c(Cl)c4)c(C#N)cnc3c2)CC1 | melting point | 217 to 220 °C |
| Cn1ccnc1Sc1ccc(Nc2c(C#N)cnc3cc(-c4ccc(CN5CCN(CCO)CC5)cn4)ccc23)cc1Cl | melting point | 160 to 163 °C |
| COc1cc(Nc2c(C#N)cnc3cc(-c4ccc(CN5CCN(CCO)CC5)o4)ccc23)c(Cl)cc1Cl | melting point | 176 to 181 °C |
| COc1cc(Nc2c(C#N)cnc3cc(-c4ccc5ccccc5c4)ccc23)c(Cl)cc1Cl | melting point | 243 to 244 °C |
| COc1cc(Nc2c(C#N)cnc3cc(-c4cnc(CN5CCN(C)CC5)n4C)c(OC)cc23)c(Cl)cc1Cl | melting point | 234 to 236 °C |
| COc1cc(Nc2c(C#N)cnc3cc(-c4ccc(CCCCN5CCOCC5)s4)ccc23)c(Cl)cc1Cl | melting point | 188 °C (dec.) |
| Cn1ccnc1Sc1ccc(Nc2c(C#N)cnc3cc(-c4ccc(CN5CCNCC5)cc4)ccc23)cc1Cl | melting point | 140 to 142 °C |
| COC(=O)C1CCN(Cc2ccc(-c3ccc4c(Nc5cc(OC)c(Cl)cc5Cl)c(C#N)cnc4c3)cc2)CC1 | melting point | 278 to 280 °C |
| CN1CCN(Cc2ccc(-c3ccc4c(Nc5ccc(Sc6nccn6C)c(Cl)c5)c(C#N)cnc4c3)cn2)CC1 | melting point | 228 to 230 °C |
| COc1cc(Nc2c(C#N)cnc3cc(-c4ccc(CNCCS(C)(=O)=O)n4C)ccc23)c(Cl)cc1Cl | melting point | 160 to 164 °C |
| Cn1ccnc1Sc1ccc(Nc2c(C#N)cnc3cc(-c4ccc(C(=O)N5CCOCC5)cc4)ccc23)cc1Cl | melting point | 98 to 101 °C |
| N#Cc1cnc2cc(-c3ccc(CN4CCOCC4)cn3)ccc2c1Nc1ccc(Oc2ccccc2)cc1 | melting point | 219 to 221 °C |
| COc1cc(Nc2c(C#N)cnc3cc(C#Cc4ccc(C)cc4)ccc23)c(Cl)cc1Cl | melting point | 223 to 225 °C |
| COc1cc(Nc2c(C#N)cnc3cc(-n4cccc4)c(OC)cc23)c(Cl)cc1Cl | melting point | 229 to 230 °C |
| CCN1CCN(c2ccc(-c3ccc4c(Nc5ccc(Sc6nccn6C)c(Cl)c5)c(C#N)cnc4c3)nc2)CC1 | melting point | 246 to 248 °C |
